I'd be grateful if you could share measured PBM binding z-score for these entries.
- System: RARa homodimer (NR concentration 270 nM)
- assay_details: PBM binding z-score (relative to random genomic background probes); higher = stronger binding; sequences stand for … in GC…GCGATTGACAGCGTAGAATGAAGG
Answers are plain numbers.

- residue_string: "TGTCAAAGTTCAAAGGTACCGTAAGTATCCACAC"
  observable: "PBM binding z-score"
  assay_value: 0.937
- residue_string: "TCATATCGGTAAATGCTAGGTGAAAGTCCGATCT"
  observable: "PBM binding z-score"
  assay_value: -0.336
- residue_string: "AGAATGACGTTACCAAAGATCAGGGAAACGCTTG"
  observable: "PBM binding z-score"
  assay_value: 0.157
- residue_string: "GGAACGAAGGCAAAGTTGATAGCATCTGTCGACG"
  observable: "PBM binding z-score"
  assay_value: -0.886
- residue_string: "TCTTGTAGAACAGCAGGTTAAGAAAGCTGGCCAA"
  observable: "PBM binding z-score"
  assay_value: -1.16
- residue_string: "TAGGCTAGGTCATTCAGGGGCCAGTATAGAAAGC"
  observable: "PBM binding z-score"
  assay_value: 0.404
- residue_string: "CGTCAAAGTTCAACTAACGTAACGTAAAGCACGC"
  observable: "PBM binding z-score"
  assay_value: 1.91
- residue_string: "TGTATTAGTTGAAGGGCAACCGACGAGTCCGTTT"
  observable: "PBM binding z-score"
  assay_value: 0.995
- residue_string: "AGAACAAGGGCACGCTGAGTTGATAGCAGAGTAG"
  observable: "PBM binding z-score"
  assay_value: -0.312
- residue_string: "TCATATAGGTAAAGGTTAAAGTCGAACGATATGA"
  observable: "PBM binding z-score"
  assay_value: 1.26

Quick request: PBM binding z-score for each listed item, please.
1. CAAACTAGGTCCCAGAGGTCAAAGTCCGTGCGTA
2. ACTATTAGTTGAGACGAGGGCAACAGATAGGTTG
3. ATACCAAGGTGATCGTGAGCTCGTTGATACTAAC

1.33
0.692
0.0437

---

- Test system: VDR homodimer (NR concentration 270 nM)
- assay_details: PBM binding z-score (relative to random genomic background probes); higher = stronger binding; sequences stand for … in GC…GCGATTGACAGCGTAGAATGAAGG
observable: PBM binding z-score
Give bare numbers.

- residue_string: "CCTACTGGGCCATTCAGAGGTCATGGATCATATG"
  PBM binding z-score: 2.09

Quick request: PBM binding z-score for each listed item, please.
1. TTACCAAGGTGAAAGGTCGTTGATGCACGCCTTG
2. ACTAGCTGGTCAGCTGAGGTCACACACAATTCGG
3. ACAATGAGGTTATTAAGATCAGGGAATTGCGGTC
4. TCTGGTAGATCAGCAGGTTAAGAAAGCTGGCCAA
5. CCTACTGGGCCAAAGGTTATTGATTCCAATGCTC

1.67
3.25
1.61
-0.56
0.0494

---

- Tested on: FXR:RXRa (NR concentration 270 nM, RXRa partner concentration 90 nM)
- assay_details: PBM binding z-score (relative to random genomic background probes); higher = stronger binding; sequences stand for … in GC…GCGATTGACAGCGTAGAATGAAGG
Label y for high-side PBM binding z-score (at or above 0.2) and n for low-side PBM binding z-score (below it).

Please tell me: is the sequence "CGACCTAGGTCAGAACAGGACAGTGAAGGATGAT" at or over 0.2 in terms of PBM binding z-score?
y

Please tell me: is the sequence "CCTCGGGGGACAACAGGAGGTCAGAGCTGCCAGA" at or over 0.2 in terms of PBM binding z-score?
y

Please tell me: is the sequence "CCAGACACGTGAGAAGGTAACTCAGCCTCGATTA" at or over 0.2 in terms of PBM binding z-score?
n

Please tell me: is the sequence "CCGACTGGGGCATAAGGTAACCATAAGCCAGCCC" at or over 0.2 in terms of PBM binding z-score?
y

Please tell me: is the sequence "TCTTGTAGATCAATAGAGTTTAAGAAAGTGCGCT" at or over 0.2 in terms of PBM binding z-score?
y

Please tell me: is the sequence "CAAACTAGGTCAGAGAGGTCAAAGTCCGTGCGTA" at or over 0.2 in terms of PBM binding z-score?
y

---

- Test system: VDR homodimer (NR concentration 270 nM)
- assay_details: PBM binding z-score (relative to random genomic background probes); higher = stronger binding; sequences stand for … in GC…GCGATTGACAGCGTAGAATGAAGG
Classification by PBM binding z-score | ranges: c1: < 0.2; c2: ≥ 0.2 and < 1; c3: ≥ 1

Example results:
- residue_string: "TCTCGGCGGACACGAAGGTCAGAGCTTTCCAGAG"
  measured_on: "VDR homodimer (NR concentration 270 nM)"
  discrete_label: "c1"
- residue_string: "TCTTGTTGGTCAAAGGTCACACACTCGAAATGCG"
  measured_on: "VDR homodimer (NR concentration 270 nM)"
  discrete_label: "c3"
- residue_string: "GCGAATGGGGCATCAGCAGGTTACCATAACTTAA"
  measured_on: "VDR homodimer (NR concentration 270 nM)"
  discrete_label: "c1"
- residue_string: "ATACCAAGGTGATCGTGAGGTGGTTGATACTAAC"
  measured_on: "VDR homodimer (NR concentration 270 nM)"
  discrete_label: "c1"

Which PBM binding z-score category applies to "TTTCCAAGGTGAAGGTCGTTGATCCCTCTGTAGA" here?
c3

Which PBM binding z-score category applies to "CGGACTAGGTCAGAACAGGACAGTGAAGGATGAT" here?
c1

Which PBM binding z-score category applies to "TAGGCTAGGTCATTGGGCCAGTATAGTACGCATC" here?
c3

Which PBM binding z-score category applies to "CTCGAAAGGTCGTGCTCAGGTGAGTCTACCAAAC" here?
c3

Which PBM binding z-score category applies to "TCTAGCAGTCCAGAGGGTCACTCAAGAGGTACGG" here?
c2

Which PBM binding z-score category applies to "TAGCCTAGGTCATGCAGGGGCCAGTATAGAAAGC" here?
c2

Which PBM binding z-score category applies to "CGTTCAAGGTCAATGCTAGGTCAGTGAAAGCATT" here?
c3

---

- System: RARb:RXRa (NR concentration 270 nM, RXRa partner concentration 90 nM)
- assay_details: PBM binding z-score (relative to random genomic background probes); higher = stronger binding; sequences stand for … in GC…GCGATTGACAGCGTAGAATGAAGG
Label YES for high-side PBM binding z-score (at or above 0.9) and NO for low-side PBM binding z-score (below it).

Example results:
- residue_string: "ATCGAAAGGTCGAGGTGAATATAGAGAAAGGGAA"
  discrete_label: "YES"
- residue_string: "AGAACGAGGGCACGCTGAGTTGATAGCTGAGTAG"
  discrete_label: "YES"
- residue_string: "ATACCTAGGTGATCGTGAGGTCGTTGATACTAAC"
  discrete_label: "YES"
- residue_string: "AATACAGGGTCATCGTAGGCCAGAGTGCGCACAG"
  discrete_label: "YES"
- residue_string: "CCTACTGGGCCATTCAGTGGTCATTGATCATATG"
  discrete_label: "NO"

Please tell me: is the sequence "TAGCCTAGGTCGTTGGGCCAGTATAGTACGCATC" at or over 0.9 in terms of PBM binding z-score?
YES

Please tell me: is the sequence "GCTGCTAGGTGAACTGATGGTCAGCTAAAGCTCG" at or over 0.9 in terms of PBM binding z-score?
YES

Please tell me: is the sequence "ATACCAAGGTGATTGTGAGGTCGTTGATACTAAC" at or over 0.9 in terms of PBM binding z-score?
YES

Please tell me: is the sequence "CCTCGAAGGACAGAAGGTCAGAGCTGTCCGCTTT" at or over 0.9 in terms of PBM binding z-score?
YES

Please tell me: is the sequence "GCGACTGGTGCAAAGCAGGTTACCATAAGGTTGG" at or over 0.9 in terms of PBM binding z-score?
NO

---

- System: PPARg DBDmut:RXRa IVT, anti-PPARg (DBD mutation: PPARg1 K132A/R137A, NR concentration 270 nM, RXRa partner concentration 90 nM)
- assay_details: PBM binding z-score (relative to random genomic background probes); higher = stronger binding; sequences stand for … in GC…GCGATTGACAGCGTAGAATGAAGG
Label criterion met for high-side PBM binding z-score (at or above 0.3) and criterion not met for low-side PBM binding z-score (below it).

Example results:
- residue_string: "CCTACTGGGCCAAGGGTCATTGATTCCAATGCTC"
  discrete_label: "criterion met"
- residue_string: "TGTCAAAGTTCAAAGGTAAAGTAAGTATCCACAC"
  discrete_label: "criterion met"
- residue_string: "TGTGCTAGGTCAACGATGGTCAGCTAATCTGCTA"
  discrete_label: "criterion not met"

Please tell me: is the sequence "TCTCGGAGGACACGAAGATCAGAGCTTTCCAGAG" at or over 0.3 in terms of PBM binding z-score?
criterion not met
